System: NOMO1
assay text: cell viability relative to DMSO control; higher = less cytotoxic
condition context: HPLM + 10% dialyzed FBS; 48 h; 15.4 µM
Label Fulfilled when cell viability is strictly below 30%; at or above that, label Not fulfilled.

compound | qualitative label
C#Cc1cccc(Nc2ncnc3cc(OC)c(OCCCCCCC(=O)NO)cc23)c1 | Fulfilled
CC(NCc1ccc2c(c1)[nH]/c(=N\C(=O)c1ccc(-c3cn[nH]c3)s1)n2CC(C)(C)O)C(C)(C)C (configuration not stated) | Fulfilled
O=C1N\2CCC3=C([NH]C4=C3C=CC=C4)C2=N/C5=CC=CC=C15 | Not fulfilled
C=CCn1c(=O)c2cnc(Nc3ccc(N4CCN(C)CC4)cc3)nc2n1-c1cccc(C(C)(C)O)n1 | Fulfilled
CCN(CC)CCN1C(=O)\C(=N/C2=CC=CC=C12)CC3=CC=C(OC)C=C3 | Not fulfilled

In: Hello, I'm reviewing records and need to know if cell viability of `COc1cc([C@@H]2c3cc4c(cc3[C@@H](O[C@@H]3O[C@@H]5CO[C@@H](c6cccs6)O[C@H]5[C@H](O)[C@H]3O)[C@H]3COC(=O)[C@H]23)OCO4)cc(OC)c1O` is below 30%. Could you check?
Out: Not fulfilled

In: Would you kindly verify if cell viability of `CNCC(O)C(O)C(O)C(O)CO.O=C(O)c1ccc(-c2cc3cccnc3c(-c3ccc4nonc4c3)n2)cc1` is strictly less than 30%?
Out: Not fulfilled

In: Is the reported cell viability for `Cc1ncc([N+](=O)[O-])n1CCO` strictly below 30%?
Out: Not fulfilled

In: State whether 30% exceeds cell viability recorded for `COc1cccc2c1C(=O)c1c(O)c3c(c(O)c1C2=O)C[C@@](O)(C(C)=O)C[C@@H]3O[C@H]1C[C@H](N)[C@H](O)[C@H](C)O1` .
Out: Fulfilled

In: Does `CO[C@H]1C[C@@H]2CC[C@@H](C)[C@@](O)(O2)C(=O)C(=O)N2CCCC[C@H]2C(=O)O[C@H]([C@H](C)C[C@@H]2CC[C@@H](OCCO)[C@H](OC)C2)CC(=O)[C@H](C)/C=C(/C)[C@@H](O)[C@@H](OC)C(=O)[C@H](C)C[C@H](C)\C=C/C=C\C=C/1C` have cell viability strictly under 30%?
Out: Not fulfilled

In: Would you kindly verify if cell viability of `Cc1[nH]c(/C=C2\C(=O)Nc3ccc([S+](=O)([O-])Cc4c(Cl)cccc4Cl)cc32)c(C)c1C(=O)N1CCC[C@@H]1CN1CCCC1` is strictly less than 30%?
Out: Not fulfilled

In: Record `Cc1cn(CCN2CCN(c3ccccc3-c3cc(C#N)cc(C(=O)NCCCN4CCCC4)c3)CC2)c2ccccc12` : is its cell viability strictly below 30%?
Out: Not fulfilled

---

Consider the following compounds and their measured cell viability readings.
Tested on: NOMO1
assay text: cell viability relative to DMSO control; higher = less cytotoxic
condition context: RPMI 5 mM glucose + 10% FBS; 48 h; 0.00702 µM
Number only, in %; omit the unit.

Consider the worked cases shown below.
compound | experimental system | measurement name | scale unit | measured result
O=C1N\2CCC3=C([NH]C4=C3C=CC=C4)C2=N/C5=CC=CC=C15 | NOMO1 | cell viability | % | 125
CC(C)NCC(O)c1ccc(NS(C)(=O)=O)cc1 (centres undefined) | NOMO1 | cell viability | % | 104
Cc1c(C(=O)Nc2cccc(C(F)(F)F)c2)cc(-c2ccccc2)n1CCCN1CCOCC1 | NOMO1 | cell viability | % | 111
CC(C)(C)NC(=O)[C@H]1CC[C@H]2[C@@H]3CC[C@H]4NC(=O)\C=C/[C@]4(C)[C@H]3CC[C@]12C | NOMO1 | cell viability | % | 102
COC1=CC=C(C=C1)C2CC(=N/N2C3=CC=C(C=C3)[S+](N)([O-])=O)\C4=CC=CC=C4 (centres undefined) | NOMO1 | cell viability | % | 92.5
CC(C)c1ccccc1Cc1cc(C(=O)Nc2ccc([S+](=O)([O-])c3ccccc3C(C)(C)C)cc2)c(O)c(O)c1O | NOMO1 | cell viability | % | 101
CC(=O)O[C@@]12CO[C@@H]1C[C@H](O)[C@]3(C)[C@@H]2[C@H](OC(=O)C4=CC=CC=C4)[C@]5(O)C[C@H](OC(=O)C(O)[C@@H](NC(=O)OC(C)(C)C)C6=CC=CC=C6)C(=C(/[C@@H](O)C3=O)C5(C)C)/C (some centres undefined) | NOMO1 | cell viability | % | 25.5
CCN1C[C@]2(OC(=O)c3ccccc3NC(C)=O)CC[C@H](OC)[C@@]34[C@@H]2C[C@@H]([C@@H]13)[C@@]1(O)C[C@H](OC)[C@H]2C[C@@H]4[C@]1(O)[C@H]2OC | NOMO1 | cell viability | % | 101
OCCCNc1cc(-c2ccnc(Nc3cccc(Cl)c3)n2)ccn1 | NOMO1 | cell viability | % | 117
CC(C)(C)NC(=O)[C@@H]1CN(Cc2cccnc2)CCN1C[C@@H](O)C[C@@H](Cc1ccccc1)C(=O)N[C@H]1c2ccccc2C[C@H]1O.O=S(=O)(O)O | NOMO1 | cell viability | % | 128

Lab note: measured cell viability of `NC(=O)Nc1cc(-c2ccc(CN3CCOCC3)cc2)sc1C(N)=O` was 126

The compound listed as `Cc1ccc(C(=O)c2cc(O)c(O)c([N+](=O)[O-])c2)cc1` shows cell viability equal to 83.6

The compound `COc1cc(OC)c(NC(=O)Nc2cc(C)on2)cc1Cl` showed cell viability equal to 85.2

`OC(COC1=C2C(=O)\C=C(/OC2=CC=C1)C([O-])=O)COC3=C4C(=O)\C=C(/OC4=CC=C3)C([O-])=O` has a reported cell viability of 74.7
